System: alkaline phosphatase (ALP)
Conditions: primary screen, 10 μM, C2C12, 4 days, Ex 450/Em 580 nm; rank in brackets not taken
quantity-name: RFU Score Threshold ≥ 800

Consider the reported RFU Score Threshold ≥ 800 for these compounds:
>>> obs_value("CCCN(C)CC1CCN(C(C)C(=O)Nc2ccc(C(F)(F)F)cc2)C1 (centres unmarked)")
"819 (28)"
>>> obs_value("CCOC(=O)c1n[nH]cc1[C@@H]1C[C@H](NC(C)=O)C[C@H](CC(C)C)O1")
"Below Threshold"
>>> obs_value("CCCc1nc(C)c(CNC(=O)C2CCOC2)s1 (centres unmarked)")
"Below Threshold"
>>> obs_value("CCC(OC)C(=O)NCc1ccc2[nH]c(-c3ccccc3F)c(C)c2c1 (centres unmarked)")
"836 (26)"

Alright, here's another compound for you.
Enter measured RFU Score Threshold ≥ 800, system alkaline phosphatase (ALP), for the compound shown: O=C(N[C@H]1CN[C@H](C(=O)NCCCn2ccnc2)C1)c1cccc(Cl)c1
993 (12)

---

Tested on: alkaline phosphatase (ALP)
Experiment: cells
Details: Mus musculus, C2C12, 96 h, read-out: NPA Score Threshold ≥ 5.0 (normalized percent activation)
quantity-name: activation at 10 µM (%)
Field: numeric (%). Do not append units.

Consider the reported activation at 10 µM for these compounds:
>>> obs_value("Cc1cc(C)n(CC(C)Nc2nc(-c3ccncc3)nc3c2CNC3)n1 (stereo not shown)")
5.32
>>> obs_value("Cc1ccccc1OCCCN(C)c1nc(-c2cccnc2)nc2c1CNC2")
5.5
>>> obs_value("C=CCN(Cc1ccc(F)cc1)C(=O)c1c[nH]c2c(C)cccc2c1=O")
5.81
>>> obs_value("CCCN(C)CC1CCN(C(C)C(=O)Nc2ccc(C(F)(F)F)cc2)C1 (stereo not shown)")
6.14
>>> obs_value("c1ccc2c(N3CCN(Cc4cc5n(n4)CCCNC5)CC3)nsc2c1")
5.04
>>> obs_value("CC(C)c1nnc(CN2C[C@H]3CC=CC[C@H]3C2)o1")
11.2
>>> obs_value("c1cc2c(cc1NC1CCCNC1)OCCO2 (stereo not shown)")
5.87
>>> obs_value("CC(C)N1CCC(SCc2ccc(F)cc2C#N)C1=O (stereo not shown)")
5.69

Provide only the value of recorded activation at 10 µM for Cc1nc2cc(-c3cccc4ccnn34)ccc2s1
5.22

Provide only the value of recorded activation at 10 µM for CN(C)CC1(O)CCCN(S(=O)(=O)c2ccc(-c3ccccc3)cc2)CC1 (stereo not shown)
9.87

---

System: alkaline phosphatase (ALP)
Settings: primary screen, 10 μM, C2C12, 4 days, Ex 450/Em 580 nm; rank in brackets not taken
quantity-name: RFU Score Threshold ≥ 800

Consider the reported RFU Score Threshold ≥ 800 for these compounds:
>>> obs_value("CCNC(=O)N1CCc2c(cnc(C)c2-c2noc(-c3ccc(C)cc3)n2)C1 [RU-0265172]")
"840 (25)"
>>> obs_value("CN(C)CCNc1cc(-c2ccc(Cl)cc2F)c2cc[nH]c2n1 [RU-0242925]")
"Below Threshold"
>>> obs_value("O=C(NC1CCN(c2ccc(F)cc2)CC1)N(CC1CCOC1)C1CC1 (centres unmarked) [RU-0219256]")
"Below Threshold"
>>> obs_value("O=C(c1ccc2c(c1)OCO2)C1CCCN(C(=O)c2cnn(Cc3ccccc3)c2)C1 (centres unmarked) [RU-0227215]")
"1310 (4)"
>>> obs_value("c1ccc2c(c1)nc(NC1CCCC1)c1nncn12 [RU-0007138]")
"Below Threshold"

Alright, here's another compound for you.
Provide only the value of recorded RFU Score Threshold ≥ 800 for O=C(CCc1n[nH]c2c1CCCC2)N1CCC2(CCCO2)CC1 [RU-0250369]
Below Threshold

---

System: alkaline phosphatase (ALP)
Experiment: cells
Settings: Mus musculus, C2C12, 96 h, read-out: NPA Score Threshold ≥ 5.0 (normalized percent activation)
Entries and their activation at 10 µM
Field: numeric (%). Do not append units.

Consider the reported activation at 10 µM for these molecules:
>>> obs_value("CO[C@H]1CN(Cc2cccc(Cl)c2Cl)CC[C@H]1N")
5.13
>>> obs_value("CN1CCC(Cc2noc(CCC(=O)c3ccccc3)n2)CC1")
5.43
>>> obs_value("O=C(NC1CCN(c2ccc(F)cc2)CC1)N(CC1CCOC1)C1CC1 (stereo not shown)")
5.69
>>> obs_value("OCc1ccc(CN2CCCC(COc3ccccc3F)C2)o1 (stereo not shown)")
6.82
>>> obs_value("O=C(CCc1n[nH]c2c1CCCC2)N1CCC2(CCCO2)CC1")
5.46
>>> obs_value("Cc1cc(C)c2[nH]c(=O)c(-c3[nH]cnc3-c3ccccc3)cc2c1")
8.78

Provide only the value of recorded activation at 10 µM for O=C(NC1CC1)C1CCCN(C2CCN(c3ccc(C(F)(F)F)cn3)CC2)C1 (stereo not shown)
5

---

Test system: alkaline phosphatase (ALP)
Details: primary screen, 10 μM, C2C12, 4 days, Ex 450/Em 580 nm; rank in brackets not taken
quantity-name: RFU Score Threshold ≥ 800

Consider the reported RFU Score Threshold ≥ 800 for these molecules:
>>> obs_value("CC(C)c1nnc(CN2C[C@H]3CC=CC[C@H]3C2)o1 [RU-0223925]")
"1120 (6)"
>>> obs_value("c1ccc(CC2CCN(Cc3cc4n(n3)CCCNC4)C2)cc1 (centres unmarked) [RU-0246723]")
"873 (20)"
>>> obs_value("Cc1cc(C)c2[nH]c(=O)c(-c3[nH]cnc3-c3ccccc3)cc2c1 [RU-0226606]")
"4000 (1)"
>>> obs_value("CN(C)CC1(O)CCCN(S(=O)(=O)c2ccc(-c3ccccc3)cc2)CC1 (centres unmarked) [RU-0259574]")
"903 (16)"

Alright, here's another molecule for you.
Provide only the value of recorded RFU Score Threshold ≥ 800 for CCc1cnc(C)nc1N1CCCC(Cc2cccnc2)C1 (centres unmarked) [RU-0238003]
1340 (3)

---

Test system: alkaline phosphatase (ALP)
Test: cells
Conditions: Mus musculus, C2C12, 96 h, read-out: NPA Score Threshold ≥ 5.0 (normalized percent activation)
quantity-name: activation at 10 µM (%)
Field: numeric (%). Do not append units.

Consider the reported activation at 10 µM for these compounds:
>>> obs_value("CCCC(C)c1nnc(NC(=O)c2ccccc2-n2cncn2)s1 (centres unmarked)")
5.51
>>> obs_value("CN(C)CCNc1cc(-c2ccc(Cl)cc2F)c2cc[nH]c2n1")
5.73
>>> obs_value("Cc1ccc(-n2cc(CN3CCCC(Cn4ccnc4C)C3)cn2)cc1C (centres unmarked)")
5.54
>>> obs_value("Cc1c(-c2ccccc2F)[nH]c2ccc(CNS(=O)(=O)N3CCCC3)cc12")
5.07

Alright, here's another compound for you.
Enter measured activation at 10 µM, system alkaline phosphatase (ALP), for the compound shown: Cc1nc2cc(C(=O)N3CCNC(=O)C3)ccc2s1
5.55

---

System: alkaline phosphatase (ALP)
Conditions: primary screen, 10 μM, C2C12, 4 days, Ex 450/Em 580 nm; rank in brackets not taken
quantity-name: RFU Score Threshold ≥ 800

>>> obs_value("CN1CCC(Cc2noc(CCC(=O)c3ccccc3)n2)CC1")
"Below Threshold"
>>> obs_value("Cc1nc2cc(C(=O)N3CCNC(=O)C3)ccc2s1")
"Below Threshold"
>>> obs_value("CCCc1ccc(-c2ccc(C(=O)N3C[C@@H](N)C[C@H]3C(=O)NC)cc2)cc1")
"804 (35)"
>>> obs_value("CC1(C)C(=O)NCCN1C(=O)/C=C(/c1ccc(Cl)cc1)C(F)(F)F")
"1170 (5)"
>>> obs_value("Cc1ccc(CN2CCN(Cc3ccccc3CO)CC2)n1-c1cccnc1")
"922 (13)"

Provide only the value of recorded RFU Score Threshold ≥ 800 for Cc1ccc(-n2cc(CN3CCCC(Cn4ccnc4C)C3)cn2)cc1C (centres unmarked)
914 (15)

---

Test system: alkaline phosphatase (ALP)
Conditions: primary screen, 10 μM, C2C12, 4 days, Ex 450/Em 580 nm; rank in brackets not taken
quantity-name: RFU Score Threshold ≥ 800

>>> obs_value("COc1cccc(C2CCN(c3ncnc4c3CCNC4)C2)c1OC (centres unmarked) [RU-0227959]")
"815 (30)"
>>> obs_value("OCc1ccccc1-c1ccc(NC2CCCC2)nn1 [RU-0227303]")
"Below Threshold"
>>> obs_value("C=CCN(Cc1ccc(F)cc1)C(=O)c1c[nH]c2c(C)cccc2c1=O [RU-0268068]")
"Below Threshold"
>>> obs_value("CC(C)N1CCC(SCc2ccc(F)cc2C#N)C1=O (centres unmarked) [RU-0201425]")
"Below Threshold"
>>> obs_value("CSc1ncc(C(=O)NCc2cc(C)cc3c(C)c(C)[nH]c23)cn1 [RU-0239453]")
"809 (33)"
>>> obs_value("c1ccc2c(N3CCN(Cc4cc5n(n4)CCCNC5)CC3)nsc2c1 [RU-0261349]")
"884 (18)"
>>> obs_value("Cc1ccccc1OCCCN(C)c1nc(-c2cccnc2)nc2c1CNC2 [RU-0231961]")
"Below Threshold"
>>> obs_value("Cc1ccccc1N1CCN(C(=O)c2ccc(C#CC(C)(C)O)o2)C(C)C1 (centres unmarked) [RU-0228950]")
"921 (14)"
>>> obs_value("OCc1ccc(CN2CCCC(COc3ccccc3F)C2)o1 (centres unmarked) [RU-0229103]")
"1980 (2)"
>>> obs_value("COc1ccc(-n2c(Cc3cccnc3)n[nH]c2=O)c(C)c1 [RU-0230205]")
"1060 (8)"

Enter measured RFU Score Threshold ≥ 800, system alkaline phosphatase (ALP), for the compound shown: Cc1cccc(-c2ncc(CN3CCCC(Cn4ccnc4C)C3)cn2)c1 (centres unmarked) [RU-0261573]
857 (21)

Enter measured RFU Score Threshold ≥ 800, system alkaline phosphatase (ALP), for the compound shown: CO[C@H]1CN(Cc2cccc(Cl)c2Cl)CC[C@H]1N [RU-0221236]
Below Threshold

Enter measured RFU Score Threshold ≥ 800, system alkaline phosphatase (ALP), for the compound shown: Cc1nc2cc(-c3cccc4ccnn34)ccc2s1 [RU-0239646]
Below Threshold

Enter measured RFU Score Threshold ≥ 800, system alkaline phosphatase (ALP), for the compound shown: CCOC(=O)N1CCC(Nc2ncnc3ccsc23)CC1 [RU-0269711]
1070 (7)

All figures here come from patent US11478466B2.
